measurement target: HLA-A2 MHC-I (HLA-A*0204, affinity purified from the EBV transformed cell line RML) (human)
Binarize Kd at 100 nM; below is True, at or above is False.

Here's what some known entries look like.
>>> label_value("ILVESPAVL (modifications not checked) [8.16nat]")
"True"
>>> label_value("LNFPISPI (modifications not checked) [8.115nat]")
"True"
>>> label_value("TLQEQIGWM (modifications not checked) [8.56nat]")
"False"
>>> label_value("SGGDPEIV (modifications not checked) [8.130nat]")
"False"
>>> label_value("ALGPAATLE (modifications not checked) [8.64nat]")
"False"
>>> label_value("ATLEEMMTA (modifications not checked) [8.65nat]")
"True"
>>> label_value("GLADQLIHM (modifications not checked) [8.11natM]")
"False"
>>> label_value("LKTAVQMAV (modifications not checked) [8.33nat]")
"False"

**Q:** Kd under 100 nM? Item: KTKPPLPSV (modifications not checked) [8.10natT]
**A:** True

**Q:** Request: FLGAAGST (modifications not checked) [8.135nat]
**A:** False

**Q:** Moving on to the next binder: SLVKHHMYI (modifications not checked) [4.14 variant]
**A:** False
